Hi there, I'd appreciate the recorded Ki for every entry that follows.
test: Inhibition of human purine nucleoside phosphorylase

Look over these answered cases.
- SMILES_RECORD: "O=c1[nH]cnc2c(CN3C[C@H](O)[C@H](O)[C@H]3CO)cccc12"
  ENDPOINT_RESULT: "> 1000 µM"
- SMILES_RECORD: "O=c1cc[nH]c2c(CN3C[C@H](O)[C@H](O)[C@H]3CO)cccc12"
  ENDPOINT_RESULT: "> 500 µM"
- SMILES_RECORD: "OC[C@@H]1[C@@H](O)[C@@H](O)CN1Cc1c[nH]c2ccccc12"
  ENDPOINT_RESULT: "> 800 µM"
- SMILES_RECORD: "OC[C@@H]1[C@@H](O)[C@@H](O)CN1Cc1cccc2cccnc12"
  ENDPOINT_RESULT: "> 1000 µM"
- SMILES_RECORD: "Nc1nc2c(CN3C[C@H](O)[C@H](O)[C@H]3CO)cccc2s1"
  ENDPOINT_RESULT: "> 1000 µM"
- SMILES_RECORD: "O=c1[nH]cnc2c(CN3C[C@H](O)[C@H](O)[C@H]3CO)csc12"
  ENDPOINT_RESULT: "77.6 µM"

input: Quick one: Ki of OC[C@@H]1[C@@H](O)[C@@H](O)CN1Cc1cccc2nccnc12 ?
output: > 1000 µM

Values were extracted from ChEMBL document CHEMBL1255445.
